# assay notes: background-corrected fluorescence of 3'-dye-labeled ssDNA relative to brightest sequence (3'-GCGCG) (fraction); higher = brighter dye fluorescence (less quenching)
# condition info: dye: Cy3 (3' terminal)
Heads up, the class ranges for background-corrected fluorescence are I (below 0.5), II (0.5 to below 0.6), III (0.6 or more)

1. TTTTTTGATGATCAGCAGCATTTTTTTTTTTTTTTCCGTT [TTGCC] : II
2. TTTTTTGCTGCTGATCATGATTTTTTTTTTTTTTTAACGC [CGCAA] : II
3. TTTTTTCAGCATCATGCTGATTTTTTTTTTTTTTTGTGAC [CAGTG] : I
4. TTTTTTGCGCATGATGATGCTTTTTTTTTTTTTTTATCCA [ACCTA] : I
5. TTTTTGCATGCGCATCATGCTTTTTTTTTTTTTTTTATGA [AGTAT] : III
6. TTTTTTCAGCATCATCATGCTTTTTTTTTTTTTTTGTGGA [AGGTG] : III
7. TTTTTTGATCAGCATCATGCTTTTTTTTTTTTTTTCGTGA [AGTGC] : III
8. TTTTTTGCTGAGCATGCTGCTTTTTTTTTTTTTTTACTAA [AATCA] : II
9. TTTTTGCATCATCATGATCATTTTTTTTTTTTTTTTGGCG [GCGGT] : III
10. TTTTTTGCTCATCATCAGCATTTTTTTTTTTTTTTAGGGT [TGGGA] : III
11. TTTTTTCATGAGCATGCTGATTTTTTTTTTTTTTTGCTAC [CATCG] : I
12. TTTTTTGATGCTGCTCATCATTTTTTTTTTTTTTTCAAGG [GGAAC] : II
13. TTTTTGCATCATGCTGCGCATTTTTTTTTTTTTTTTGAAT [TAAGT] : II
14. TTTTTTCAGCAGCATCATGATTTTTTTTTTTTTTTGTTGC [CGTTG] : II
15. TTTTTTCATGCTGCTCATGCTTTTTTTTTTTTTTTGAAGA [AGAAG] : III
16. TTTTTTCATGATGATGATGCTTTTTTTTTTTTTTTGCCCA [ACCCG] : I
17. TTTTTGCATCATGCTGCTGATTTTTTTTTTTTTTTTGAAC [CAAGT] : I
18. TTTTTTGAGCATGATGATGCTTTTTTTTTTTTTTTCTCCA [ACCTC] : I
19. TTTTTTCATCATGCTGATGATTTTTTTTTTTTTTTGGACC [CCAGG] : I
20. TTTTTTCAGCATGCGCATGCTTTTTTTTTTTTTTTGTATA [ATATG] : II
21. TTTTTTGAGCATGATCAGCATTTTTTTTTTTTTTTCTCGT [TGCTC] : II
22. TTTTTTGCTGCGCATCATGCTTTTTTTTTTTTTTTAATGA [AGTAA] : III
23. TTTTTGCATCATCATCAGCATTTTTTTTTTTTTTTTGGGT : III
24. TTTTTGCAGCAGCATGCTGATTTTTTTTTTTTTTTTTTAC [CATTT] : I
25. TTTTTTGATGCTCATGATGATTTTTTTTTTTTTTTCAGCC [CCGAC] : I
26. TTTTTTGATGCTCATGCGCATTTTTTTTTTTTTTTCAGAT [TAGAC] : II
27. TTTTTTCATGATGATGCTCATTTTTTTTTTTTTTTGCCAG [GACCG] : II
28. TTTTTTGCTGAGCAGCAGCATTTTTTTTTTTTTTTACTTT [TTTCA] : II
29. TTTTTTGCGCATCATGATGCTTTTTTTTTTTTTTTATGCA [ACGTA] : II
30. TTTTTTCATCAGCATGATGATTTTTTTTTTTTTTTGGTCC [CCTGG] : I
31. TTTTTTGATGAGCAGCATCATTTTTTTTTTTTTTTCCTTG [GTTCC] : II
32. TTTTTTCATGCTGATGCTGATTTTTTTTTTTTTTTGACAC [CACAG] : I
33. TTTTTTCATGCTGCTCAGCATTTTTTTTTTTTTTTGAAGT : III
34. TTTTTGCAGCATGCTCATGCTTTTTTTTTTTTTTTTTAGA [AGATT] : III
